Entries and their measured MIC follow.
# Tested on: Aspergillus fumigatus
# protocol-summary: Antimicrobial activity against Aspergillus fumigatus 7544 after 48 hrs by serial dilution method
# Assay type: functional
# measurement-context: Aspergillus fumigatus, 7544, 48 h
measurement-type: MIC (µg/mL)

| sample-smiles | measurement-type | relational-operator | value-observed |
| --- | --- | --- | --- |
| C[C@@H](N1CCn2cc(C(C)(C)C)nc2C1)[C@](O)(Cn1cncn1)c1ccc(F)cc1F | MIC | > | 64 |
| C[C@@H](N1CCc2nc(-c3ccc(F)nc3)sc2C1)[C@](O)(Cn1cncn1)c1ccc(F)cc1F | MIC | = | 8 |
| COc1ccc(-c2nc3c(s2)CN([C@H](C)[C@](O)(Cn2cncn2)c2ccc(F)cc2F)CC3)cc1 | MIC | = | 16 |
| C[C@@H](N1CCn2nc(-c3cccc(F)c3)nc2C1)[C@](O)(Cn1cncn1)c1ccc(F)cc1F | MIC | = | 16 |
| C[C@@H](N1CCn2nnc(-c3cccnc3)c2C1)[C@](O)(Cn1cncn1)c1ccc(F)cc1F | MIC | = | 8 |
| Cc1cccc(-c2nc3c(s2)CN([C@H](C)[C@](O)(Cn2cncn2)c2ccc(F)cc2F)CC3)c1 | MIC | = | 32 |
| C[C@@H](N1CCc2sc(-c3cccnc3)cc2C1)[C@](O)(Cn1cncn1)c1ccc(F)cc1F | MIC | = | 32 |
| Cc1ccc(-c2cc3c(s2)CCN([C@H](C)[C@](O)(Cn2cncn2)c2ccc(F)cc2F)C3)cc1 | MIC | = | 8 |

* * *

# Tested on: Candida parapsilosis
# protocol-summary: Antimicrobial activity against Candida parapsilosis 22019 after 24 hrs by serial dilution method
# Type: functional
# measurement-context: Lodderomyces parapsilosis, 22019, 24 h
Entries and their measured log10(MIC) follow.
measurement-type: log10(MIC) (log10 of the value in µg/mL)

| sample-smiles | value-observed |
| --- | --- |
| C[C@@H](N1CCc2nc(-c3cccs3)sc2C1)[C@](O)(Cn1cncn1)c1ccc(F)cc1F | 0.00 |
| C[C@@H](N1CCc2sc(-c3cncnc3)cc2C1)[C@](O)(Cn1cncn1)c1ccc(F)cc1F | 0.60 |
| COc1cccc(-c2cn3c(n2)CN([C@H](C)[C@](O)(Cn2cncn2)c2ccc(F)cc2F)CC3)c1 | -0.90 |
| C[C@@H](N1CCn2nc(-c3cccc(Cl)c3)nc2C1)[C@](O)(Cn1cncn1)c1ccc(F)cc1F | 0.00 |
| C[C@@H](N1CCn2cc(C(F)(F)F)nc2C1)[C@](O)(Cn1cncn1)c1ccc(F)cc1F | -0.60 |
| Cc1nnn2c1CN([C@H](C)[C@](O)(Cn1cncn1)c1ccc(F)cc1F)CC2 | -0.30 |
| C[C@@H](N1CCc2nc(-c3ccco3)sc2C1)[C@](O)(Cn1cncn1)c1ccc(F)cc1F | 0.00 |
| C[C@@H](N1CCc2nc(-c3ccccc3)sc2C1)[C@](O)(Cn1cncn1)c1ccc(F)cc1F | -0.30 |
| C[C@@H](N1CCc2cc(Br)sc2C1)[C@](O)(Cn1cncn1)c1ccc(F)cc1F | 0.30 |
| Cc1ccc(-c2nc3n(n2)CCN([C@H](C)[C@](O)(Cn2cncn2)c2ccc(F)cc2F)C3)cc1 | -0.90 |
| COc1ccc(-c2nc3c(s2)CN([C@H](C)[C@](O)(Cn2cncn2)c2ccc(F)cc2F)CC3)cn1 | -0.30 |
| C[C@@H](N1CCc2sc(-c3ccc(C(F)(F)F)cc3)cc2C1)[C@](O)(Cn1cncn1)c1ccc(F)cc1F | 1.20 |
| C[C@@H](N1CCn2cc(-c3ccc(F)cc3F)nc2C1)[C@](O)(Cn1cncn1)c1ccc(F)cc1F | -0.90 |
| C[C@@H](N1CCc2sc(Br)cc2C1)[C@](O)(Cn1cncn1)c1ccc(F)cc1F | 0.90 |
| C[C@@H](N1CCn2nc(-c3ccc(C#N)nc3)nc2C1)[C@](O)(Cn1cncn1)c1ccc(F)cc1F | -1.81 |
| C[C@@H](N1CCn2nc(-c3ccncc3)nc2C1)[C@](O)(Cn1cncn1)c1ccc(F)cc1F | -1.51 |
| Cc1cccc(-c2nc3c(s2)CN([C@H](C)[C@](O)(Cn2cncn2)c2ccc(F)cc2F)CC3)c1 | 0.00 |
| Cc1cccc(-c2cc3c(s2)CCN([C@H](C)[C@](O)(Cn2cncn2)c2ccc(F)cc2F)C3)c1 | 0.30 |
| CC(C)c1ccc(-c2nc3n(n2)CCN([C@H](C)[C@](O)(Cn2cncn2)c2ccc(F)cc2F)C3)cc1 | 0.00 |
| C[C@@H](N1CCc2cc(-c3cncnc3)sc2C1)[C@](O)(Cn1cncn1)c1ccc(F)cc1F | -0.30 |
| C[C@@H](N1CCc2nc(-c3ccc(C(F)(F)F)cc3)sc2C1)[C@](O)(Cn1cncn1)c1ccc(F)cc1F | 0.30 |
| C[C@@H](N1CCc2nc(Br)sc2C1)[C@](O)(Cn1cncn1)c1ccc(F)cc1F | 0.00 |
| C[C@@H](N1CCc2nc(-c3ccncc3)sc2C1)[C@](O)(Cn1cncn1)c1ccc(F)cc1F | -0.90 |
| C[C@@H](N1CCn2nc(-c3ccco3)nc2C1)[C@](O)(Cn1cncn1)c1ccc(F)cc1F | -0.60 |
| C[C@@H](N1CCc2nc(-c3cncnc3)sc2C1)[C@](O)(Cn1cncn1)c1ccc(F)cc1F | -1.20 |
| C[C@@H](N1CCc2sc(-c3ccncc3)cc2C1)[C@](O)(Cn1cncn1)c1ccc(F)cc1F | 0.60 |
| C[C@@H](N1CCc2nc(-c3ccsc3)sc2C1)[C@](O)(Cn1cncn1)c1ccc(F)cc1F | -0.60 |
| C[C@@H](N1CCn2nc(-c3cncc(F)c3)nc2C1)[C@](O)(Cn1cncn1)c1ccc(F)cc1F | -0.90 |
| C[C@@H](N1CCc2nc(-c3cccc(F)c3)sc2C1)[C@](O)(Cn1cncn1)c1ccc(F)cc1F | 0.30 |
| COc1ncc(-c2nc3n(n2)CCN([C@H](C)[C@](O)(Cn2cncn2)c2ccc(F)cc2F)C3)cn1 | -0.60 |
| C[C@@H](N1CCn2nncc2C1)[C@](O)(Cn1cncn1)c1ccc(F)cc1F | -0.60 |
| COc1ccc(-c2cn3c(n2)CN([C@H](C)[C@](O)(Cn2cncn2)c2ccc(F)cc2F)CC3)cc1 | -0.90 |
| Cc1cccc(-c2nc3n(n2)CCN([C@H](C)[C@](O)(Cn2cncn2)c2ccc(F)cc2F)C3)c1 | -0.60 |
| C[C@@H](N1CCn2nnc(-c3ccc(C#N)nc3)c2C1)[C@](O)(Cn1cncn1)c1ccc(F)cc1F | 0.60 |

* * *

# Test system: Candida parapsilosis
# protocol-summary: Antimicrobial activity against Candida parapsilosis 22019 after 24 hrs by serial dilution method
# Type: functional
# measurement-context: Lodderomyces parapsilosis, 22019, 24 h
Entries and their measured MIC follow.

| sample-smiles | tested-target | MIC / µg/mL |
| --- | --- | --- |
| Cc1ncc(-c2nc3c(s2)CN([C@H](C)[C@](O)(Cn2cncn2)c2ccc(F)cc2F)CC3)cn1 | Candida parapsilosis | 0.25 |
| C[C@@H](n1cnc2cc(Cl)ccc2c1=O)[C@](O)(Cn1cncn1)c1ccc(F)cc1F | Candida parapsilosis | 0.0156 |
| C[C@@H](N1CCc2nc(-c3ccc(C#N)cc3)sc2C1)[C@](O)(Cn1cncn1)c1ccc(F)cc1F | Candida parapsilosis | 0.125 |
| C[C@@H](N1CCc2nc(-c3ccc(F)cc3)sc2C1)[C@](O)(Cn1cncn1)c1ccc(F)cc1F | Candida parapsilosis | 2 |
| COc1ncc(-c2nc3c(s2)CN([C@H](C)[C@](O)(Cn2cncn2)c2ccc(F)cc2F)CC3)cn1 | Candida parapsilosis | 0.25 |
| C[C@@H](c1nc(-c2ccc(C#N)cc2)cs1)[C@](O)(Cn1cncn1)c1ccc(F)cc1F | Candida parapsilosis | 0.125 |
| COc1ccc(-c2nc3n(n2)CCN([C@H](C)[C@](O)(Cn2cncn2)c2ccc(F)cc2F)C3)cc1 | Candida parapsilosis | 0.25 |
| C[C@@H](N1CCc2nc(-c3cncc(C#N)c3)sc2C1)[C@](O)(Cn1cncn1)c1ccc(F)cc1F | Candida parapsilosis | 0.25 |

* * *

# Tested on: Aspergillus fumigatus
# protocol-summary: Antimicrobial activity against Aspergillus fumigatus 7544 after 48 hrs by serial dilution method
# Type: functional
# measurement-context: Aspergillus fumigatus, 7544, 48 h
Entries and their measured MIC follow.

| compound | tested-target | relational-operator | MIC, µg/mL |
| --- | --- | --- | --- |
| C[C@@H](N1CCn2nncc2C1)[C@](O)(Cn1cncn1)c1ccc(F)cc1F | Aspergillus fumigatus | = | 16 |
| C[C@@H](N1CCc2sc(-c3cccc(C#N)c3)cc2C1)[C@](O)(Cn1cncn1)c1ccc(F)cc1F | Aspergillus fumigatus | = | 64 |
| C[C@@H](N1CCc2sc(-c3ccc(C(F)(F)F)cc3)cc2C1)[C@](O)(Cn1cncn1)c1ccc(F)cc1F | Aspergillus fumigatus | = | 32 |
| C[C@@H](N1CCc2sc(-c3cccc(F)c3)cc2C1)[C@](O)(Cn1cncn1)c1ccc(F)cc1F | Aspergillus fumigatus | = | 8 |
| C[C@@H](N1CCn2nnc(C(=O)N(C)C)c2C1)[C@](O)(Cn1cncn1)c1ccc(F)cc1F | Aspergillus fumigatus | > | 16 |
| C[C@@H](c1nc(-c2ccc(C#N)cc2)cs1)[C@](O)(Cn1cncn1)c1ccc(F)cc1F [RAVUCONAZOLE] | Aspergillus fumigatus | = | 1 |
| Cc1ccc(-c2nc3c(s2)CN([C@H](C)[C@](O)(Cn2cncn2)c2ccc(F)cc2F)CC3)cc1 | Aspergillus fumigatus | = | 16 |
| C[C@@H](N1CCc2nc(Br)sc2C1)[C@](O)(Cn1cncn1)c1ccc(F)cc1F | Aspergillus fumigatus | = | 32 |
